- System: MALME-3M melanoma
- procedure_details: NCI tumour cell line growth inhibition, 48 h
property_measured: TGI

Consider the worked cases shown below.
{"columns": ["molecule", "TGI"],
 "data": [
  ["c1ccc(N=C(Nc2ccccc2)N2CCCCC2)cc1", "> 100 µM"],
  ["O=C(CSc1nc2ccccc2s1)c1sc2sc3ccccc3[n+]2c1[O-]", "> 100 µM"],
  ["N#CC(C(=O)CCC(=O)C(C#N)c1ccccc1)c1ccccc1 (stereo unspecified)", "> 100 µM"],
  ["COc1ccc(C[C@H](N)C(=O)NC2C(CO)OC(n3cnc4c(N(C)C)ncnc43)C2O)cc1 (stereo partly specified)", "2.53 µM"],
  ["COC(=O)c1sc2ncc3c(c2c1N)CCCCCC3", "> 100 µM"],
  ["C=CC(=O)N1CCN(c2nc(=O)n(-c3c(C)ccnc3C(C)C)c3nc(-c4c(O)cccc4F)c(F)cc23)[C@@H](C)C1", "64 µM"],
  ["N#CN=C(N)NC(=O)/C=C/C=C/c1ccc(Cl)cc1", "> 100 µM"],
  ["Nc1ccc2nc(Nc3ccc(F)cc3)cnc2c1", "> 100 µM"]
]}

Hi team, please reply with TGI for each item in this list.
1. COc1ccc(/C=C\c2cc(OC)c(OC)c(OC)c2)cc1OC(=O)c1cccc(Cn2cc(CCOC(=O)[C@H](N)Cc3cn(C)c4ccccc34)nn2)c1
2. CC(=O)[CH-]C(=O)c1ccccc1.CC(=O)[CH-]C(=O)c1ccccc1.CC(C)CCCC(C)[C@H]1CCC2[C@@H]3CC=C4C[C@@H]([O-])CC[C@]4(C)C3CC[C@@]21C.CC[O-].[Ti+4] (stereo partly specified)
3. N#CCCCC[N+]12CN3CN(CN(C3)C1)C2

25.6 µM
75.6 µM
> 100 µM
